system: VDR homodimer (NR concentration 270 nM); test: PBM binding z-score (relative to random genomic background probes); higher = stronger binding; sequences stand for … in GC…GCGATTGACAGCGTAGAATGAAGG
Kindly supply the reported PBM binding z-score values for the records listed here.
Provide a numeric answer; units are not to be included.

Ask: Sample `CGTCCAAGGTCAGTGCTAGGTCAGTGAAAGCATT` — what was its PBM binding z-score?
Reply: 2

Ask: Sample `GGAACGAGTGCAAGTTGATAGCAGAGTTTGATGG` — what was its PBM binding z-score?
Reply: 2.87

Ask: Sample `CAAACTAGGTCACGGTCAAAGTCGGTTTGTGCCA` — what was its PBM binding z-score?
Reply: 1.7

Ask: Sample `CAAACTAGGTCAAAGGTCACAGTCGAGCCAACCA` — what was its PBM binding z-score?
Reply: 2.73
